# Tested on: Staphylococcus aureus
# test: Antibacterial activity against penicillin-resistant Staphylococcus aureus by the broth microdilution method
# Format: functional
Kindly supply the reported MIC values for the records listed here.
Give the value, in units of µg/mL, as a plain number.

Incoming: Consider the molecule `CC[C@H]1OC(=O)[C@H](C)[C@@H](O[C@H]2C[C@@](C)(OC)[C@@H](OC(=O)NNC(=O)c3ccccc3OC)[C@H](C)O2)[C@H](C)[C@@H](O[C@@H]2O[C@H](C)C[C@H](N(C)C)[C@H]2O)[C@](C)(O)C[C@@H](C)CN(C)[C@H](C)[C@H]2OC(=O)O[C@@]21C` . State its measured MIC.
Outgoing: 16

Incoming: Consider the molecule `CC[C@H]1OC(=O)[C@H](C)[C@@H](O[C@H]2C[C@@](C)(OC)[C@@H](OC(=O)NCCCCNC(=O)c3ccc(OC)c(OC)c3)[C@H](C)O2)[C@H](C)[C@@H](O[C@@H]2O[C@H](C)C[C@H](N(C)C)[C@H]2O)[C@](C)(O)C[C@@H](C)CN(C)[C@H](C)[C@H]2OC(=O)O[C@@]21C` . State its measured MIC.
Outgoing: 16

Incoming: Consider the molecule `CC[C@H]1OC(=O)[C@H](C)[C@@H](O[C@H]2C[C@@](C)(OC)[C@@H](OC(=O)NCCCCNC(=O)c3ccc([N+](=O)[O-])cc3)[C@H](C)O2)[C@H](C)[C@@H](O[C@@H]2O[C@H](C)C[C@H](N(C)C)[C@H]2O)[C@](C)(O)C[C@@H](C)CN(C)[C@H](C)[C@H]2OC(=O)O[C@@]21C` . State its measured MIC.
Outgoing: 32
